The reported numbers originate from patent US20260234115A1.

Tested on: mouse organs
Assay: In vivo activity screening in mice: organ mean total flux (p/s) of luciferase activity after injection of F2 LNP pools (Table 6, FIG. 7A-7C)
Details: Mouse 6, dose 0.5 mg/kg, luciferase mRNA
Protocol: Small rodent biodistribution studies were performed in mice (e.g., C57BL/6J, Balb-c, CD-1, etc.). […] For in detail organ distribution and activity of LNP formulations, ex vivo imaging sessions were also performed. […] Following perfusion, the organs were collected and subjected to IVIS imaging for luminescence within 10-15 minutes of D-Luciferin injection. […]
Marks after values point to notes of the source that are not given here.
Quick reference for Organ Mean Total Flux Spleen among some molecules
value-kind: Organ Mean Total Flux Spleen

[
  {
    "molecule": "CCCCC/C=C\\CCOC(=O)CCCCC(=O)OCC(COC(=O)CCCCC(=O)OCC/C=C\\CCCCC)(COC(=O)CCC(CCCCCC)OC(=O)NCCN1CCCC1)COC(=O)CC12CC3CC(CC(C3)C1)C2 (stereo not drawn)",
    "experimental-result": "28.7 p/s (×10^6)"
  },
  {
    "molecule": "CCCCCCCCCCOC(=O)CCCCCC(=O)OCC(COC(=O)CCCCCC(=O)OCCCCCCCCCC)(COC(=O)CCCCCC(=O)OCCCCCCCCCC)COC(=O)CCC(CCCCCC)OC(=O)NCCN1CCCC1 (stereo not drawn)",
    "experimental-result": "6.1 p/s (×10^6)"
  },
  {
    "molecule": "CCCCCCCCOC(=O)CCCCCC(=O)OCC(COC(=O)CCCCCC(=O)OCCCCCCCC)(COC(=O)CCCCCC(=O)OCCCCCCCC)COC(=O)CCC(CCCCCC)OC(=O)NCCN1CCCC1 (stereo not drawn)",
    "experimental-result": "39.4 p/s (×10^6)"
  },
  {
    "molecule": "CCCCC/C=C\\CCOC(=O)CCCCCC(=O)OCC(COC(=O)CCCCCC(=O)OCC/C=C\\CCCCC)(COC(=O)CCCCCC(=O)OCC/C=C\\CCCCC)COC(=O)CCC(CCCCCCCC)OC(=O)NCCN1CCCC1 (stereo not drawn)",
    "experimental-result": "3.5 p/s (×10^6)"
  },
  {
    "molecule": "CCCCC/C=C\\C/C=C\\CCCCCCCCC(CCCCCCCC/C=C\\C/C=C\\CCCCC)OC(=O)CCCN(C)C [MC3, reference compound]",
    "experimental-result": "11.7 p/s (×10^6)"
  },
  {
    "molecule": "CCCCCCCC(C)OC(=O)CCCCCC(=O)OCC(COC(=O)CCCCCC(=O)OC(C)CCCCCCC)(COC(=O)CCCCCC(=O)OC(C)CCCCCCC)COC(=O)CCC(CCCCCC)OC(=O)NCCN1CCCC1 (stereo not drawn)",
    "experimental-result": "27.2 p/s (×10^6)"
  },
  {
    "molecule": "CCCCC/C=C\\CCOC(=O)CCCCCCC(=O)OCC(COC(=O)CCCCCCC(=O)OCC/C=C\\CCCCC)(COC(=O)CCCCCCC(=O)OCC/C=C\\CCCCC)COC(=O)CCC(CCCC)OC(=O)NCCN1CCCC1 (stereo not drawn)",
    "experimental-result": "80.3 p/s (×10^6)"
  },
  {
    "molecule": "CCCCCCCCCOC(=O)CCCCCC(=O)OCC(COC(=O)CCCCCC(=O)OCCCCCCCCC)(COC(=O)CCCCCC(=O)OCCCCCCCCC)COC(=O)CCC(CCCCCC)OC(=O)NCCN1CCCC1 (stereo not drawn)",
    "experimental-result": "10.7 p/s (×10^6)"
  },
  {
    "molecule": "CCCCCCCCCCOC(=O)CCCCCCC(=O)OCC(COC(=O)CCCCCCC(=O)OCCCCCCCCCC)(COC(=O)CCCCCCC(=O)OCCCCCCCCCC)COC(=O)CCC(CCCCCC)OC(=O)NCCN1CCCC1 (stereo not drawn)",
    "experimental-result": "5.4 p/s (×10^6)"
  },
  {
    "molecule": "CCCCCCCCC(C)OC(=O)CCCCCC(=O)OCC(COC(=O)CCCCCC(=O)OC(C)CCCCCCCC)(COC(=O)CCCCCC(=O)OC(C)CCCCCCCC)COC(=O)CCC(CCCCCC)OC(=O)NCCN1CCCC1 (stereo not drawn)",
    "experimental-result": "6.4 p/s (×10^6)"
  },
  {
    "molecule": "CCCCCCCCOC(=O)CCCCCCC(=O)OCC(COC(=O)CCCCCCC(=O)OCCCCCCCC)(COC(=O)CCCCCCC(=O)OCCCCCCCC)COC(=O)CCC(CCCCCC)OC(=O)NCCN1CCCC1 (stereo not drawn)",
    "experimental-result": "30.1 p/s (×10^6)"
  },
  {
    "molecule": "CCCCC/C=C\\CCOC(=O)CCCCCCC(=O)OCC(COC(=O)CCCCCCC(=O)OCC/C=C\\CCCCC)(COC(=O)CCCCCCC(=O)OCC/C=C\\CCCCC)COC(=O)CCC(CCCCCC)OC(=O)NCCN(C)CC (stereo not drawn)",
    "experimental-result": "3.3 p/s (×10^6)"
  }
]
